Test system: MS2 coat protein
PROTOCOL SUMMARY: apparent KD of MS2 coat protein; higher = weaker reporter binding
CONDITION DETAILS: Eterna round: R107; input ligand: none

{"SEQUENCE": "CCGGCAUGUCGAAGGAGCGUCACAUGAGGAUCACCCAUGUACAUGAGGAUCACCCAUGUGUGACAGGUAGGUCGCGGCGGCCAGG [Exclusion Arginine B GF7]", "UNIT SYMBOL": "nM", "apparent KD of MS2 coat protein": 140}
{"SEQUENCE": "UGUAUGUGAUUUGAUACCAGACCAGCUGGUGGUACACGAGGAUCACCCGUGUAGGUUUGGGUCCCUUGGCAGCAAAUCGCAUACU [SS Theo B #24 Ms3]", "UNIT SYMBOL": "nM", "apparent KD of MS2 coat protein": 56.8}
{"SEQUENCE": "AAUCAUGGAAACAUGACAUGAGGGUUACUCCGAGGACCGGUACGGCCGCCACUCGCGAGGAGGCGGACAUGAGGAUCACCCAUGU [#04 Tryptophan A Same State]", "UNIT SYMBOL": "nM", "apparent KD of MS2 coat protein": 392}

Attribution: the supplement of paper PMC9170038
